# Test system: 521955-158-R2-J5-PDC complex spheroids, viability
# Assay Explanation: Anticancer human tumor 521955-158-R2-J5-PDC patient-derived pancreatic carcinoma cell line growth inhibition [RAS]; active = viability on the fitted dose curve at most 10% of control; inactive = the rest
# Particulars: second compound 0.0949 µM; first compound 0.01 µM
Give your call using only these classes: T = active, F = inactive

Write down the call the test reported for this molecule. Item: CC(C)n1nc(-c2ccc3oc(N)nc3c2)c2c(N)ncnc21 + CCn1c(-c2cc(N3CCN(C)CC3)cnc2C(C)OC)c2c3cc(ccc31)-c1csc(n1)CC(NC(=O)C1CC1C)C(=O)N1CCCC(N1)C(=O)OCC(C)(C)C2
F

Write down the call the test reported for this molecule. Item: O=C(c1ccc(F)c(F)c1Nc1ccc(I)cc1F)N1CC(O)([C@@H]2CCCCN2)C1 + CCn1c(-c2cc(N3CCN(C)CC3)cnc2C(C)OC)c2c3cc(ccc31)-c1csc(n1)CC(NC(=O)C1CC1C)C(=O)N1CCCC(N1)C(=O)OCC(C)(C)C2
T

Write down the call the test reported for this molecule. Item: C=CC(=O)Nc1cc(Nc2nccc(-c3cn(C)c4ccccc34)n2)c(OC)cc1N(C)CCN(C)C + CCn1c(-c2cc(N3CCN(C)CC3)cnc2C(C)OC)c2c3cc(ccc31)-c1csc(n1)CC(NC(=O)C1CC1C)C(=O)N1CCCC(N1)C(=O)OCC(C)(C)C2
F

Write down the call the test reported for this molecule. Item: C=CC(=O)N1CCN(c2nc(OCC3CCCN3C)nc3c(F)c(-c4nc(N)cc(C)c4C(F)(F)F)c(Cl)cc23)C(C)C1 (configuration not stated) + CCn1c(-c2cccnc2C(C)OC)c2c3cc(ccc31)N1CCOC(CC(NC(=O)C(C(C)C)N(C)C(=O)C3(F)CCN(C(=O)C#CC(C)(C)N(C)C)CC3)C(=O)N3CCCC(N3)C(=O)OCC(C)(C)C2)C1
F

Write down the call the test reported for this molecule. Item: Nc1ccn(C2OC(CO)C(O)C2(F)F)c(=O)n1 (configuration not stated) + CCn1c(-c2cc(N3CCN(C)CC3)cnc2C(C)OC)c2c3cc(ccc31)-c1csc(n1)CC(NC(=O)C1CC1C)C(=O)N1CCCC(N1)C(=O)OCC(C)(C)C2
F

Write down the call the test reported for this molecule. Item: CC(C)n1nc(-c2ccc3oc(N)nc3c2)c2c(N)ncnc21 + CCn1c(-c2cccnc2C(C)OC)c2c3cc(ccc31)N1CCOC(CC(NC(=O)C(C(C)C)N(C)C(=O)C3(F)CCN(C(=O)C#CC(C)(C)N(C)C)CC3)C(=O)N3CCCC(N3)C(=O)OCC(C)(C)C2)C1
F

Write down the call the test reported for this molecule. Item: C=CC(=O)Nc1cc(Nc2nccc(-c3cn(C)c4ccccc34)n2)c(OC)cc1N(C)CCN(C)C + CCn1c(-c2cccnc2C(C)OC)c2c3cc(ccc31)N1CCOC(CC(NC(=O)C(C(C)C)N(C)C(=O)C3(F)CCN(C(=O)C#CC(C)(C)N(C)C)CC3)C(=O)N3CCCC(N3)C(=O)OCC(C)(C)C2)C1
F

Write down the call the test reported for this molecule. Item: Nc1ccn(C2OC(CO)C(O)C2(F)F)c(=O)n1 (configuration not stated) + CCn1c(-c2cccnc2C(C)OC)c2c3cc(ccc31)N1CCOC(CC(NC(=O)C(C(C)C)N(C)C(=O)C3(F)CCN(C(=O)C#CC(C)(C)N(C)C)CC3)C(=O)N3CCCC(N3)C(=O)OCC(C)(C)C2)C1
F

Write down the call the test reported for this molecule. Item: CCN1CCN(Cc2ccc(Nc3ncc(F)c(-c4cc(F)c5nc(C)n(C(C)C)c5c4)n3)nc2)CC1 + CCn1c(-c2cccnc2C(C)OC)c2c3cc(ccc31)N1CCOC(CC(NC(=O)C(C(C)C)N(C)C(=O)C3(F)CCN(C(=O)C#CC(C)(C)N(C)C)CC3)C(=O)N3CCCC(N3)C(=O)OCC(C)(C)C2)C1
F

Write down the call the test reported for this molecule. Item: CCN1CCN(Cc2ccc(Nc3ncc(F)c(-c4cc(F)c5nc(C)n(C(C)C)c5c4)n3)nc2)CC1 + CCn1c(-c2cc(N3CCN(C)CC3)cnc2C(C)OC)c2c3cc(ccc31)-c1csc(n1)CC(NC(=O)C1CC1C)C(=O)N1CCCC(N1)C(=O)OCC(C)(C)C2
F

Write down the call the test reported for this molecule. Item: C=CC(=O)N1CCN(c2nc(OCC3CCCN3C)nc3c(F)c(-c4nc(N)cc(C)c4C(F)(F)F)c(Cl)cc23)C(C)C1 (configuration not stated) + CCn1c(-c2cc(N3CCN(C)CC3)cnc2C(C)OC)c2c3cc(ccc31)-c1csc(n1)CC(NC(=O)C1CC1C)C(=O)N1CCCC(N1)C(=O)OCC(C)(C)C2
F

Write down the call the test reported for this molecule. Item: O=C(c1ccc(F)c(F)c1Nc1ccc(I)cc1F)N1CC(O)([C@@H]2CCCCN2)C1 + CCn1c(-c2cccnc2C(C)OC)c2c3cc(ccc31)N1CCOC(CC(NC(=O)C(C(C)C)N(C)C(=O)C3(F)CCN(C(=O)C#CC(C)(C)N(C)C)CC3)C(=O)N3CCCC(N3)C(=O)OCC(C)(C)C2)C1
F

* * *

# Tested on: 521955-158-R2-J5-PDC complex spheroids, viability
# Assay Explanation: Anticancer human tumor 521955-158-R2-J5-PDC cell line growth inhibition [RAS];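 note: spheroids also contain HUVEC endothelial cells and mesenchymal stem cells as stroma; compound exposure lasted seven days before the viability read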
# Particulars: second compound 1 µM; first compound 0.1 µM; active compounds read low
Property Label: viability, T/C (%)
Reply with just the number (in %).

Given the compound CCC(CC)c1cc(NC2CCC(N)C2)n2nccc2n1 (stereo not given) + C=CC(=O)N1CCN(c2nc(OCC3CCCN3C)nc3c(F)c(-c4nc(N)cc(C)c4C(F)(F)F)c(Cl)cc23)C(C)C1 , what is its reported viability, T/C?
107

Given the compound NC1c2ccccc2OC12CCN(c1cnc3c(N4CCCc5ncccc54)n[nH]c3n1)CC2 (stereo not given) + C#Cc1c(F)ccc2cc(O)cc(-c3ncc4c(N5CC6CCC(C5)N6)nc(OCC56CCCN5CC(F)C6)nc4c3F)c12 , what is its reported viability, T/C?
31.7

Given the compound CC1(O)CCCC1n1c(=O)c(C(F)F)cc2cnc(NC3CCN(S(C)(=O)=O)CC3)nc21 (stereo not given) + C=CC(=O)N1CCN(c2nc(OCC3CCCN3C)nc3c(F)c(-c4nc(N)cc(C)c4C(F)(F)F)c(Cl)cc23)C(C)C1 , what is its reported viability, T/C?
89.1

Given the compound Nc1ccn(C2OC(CO)C(O)C2(F)F)c(=O)n1 (stereo not given) + C#Cc1c(F)ccc2cc(O)cc(-c3ncc4c(N5CC6CCC(C5)N6)nc(OCC56CCCN5CC(F)C6)nc4c3F)c12 , what is its reported viability, T/C?
16.4

Given the compound CC(Nc1ccc2c(c1)OCCn1cc(N3C(=O)OCC3C(F)F)nc1-2)C(N)=O (stereo not given) + C=CC(=O)N1CCN(c2nc(OCC3CCCN3C)nc3c(F)c(-c4nc(N)cc(C)c4C(F)(F)F)c(Cl)cc23)C(C)C1 , what is its reported viability, T/C?
53.4

Given the compound Cc1nc(N2CCC3(CC2)COC(C)C3N)c(CO)nc1Sc1ccnc(N)c1Cl (stereo not given) + C=CC(=O)N1CCN(c2nc(OCC3CCCN3C)nc3c(F)c(-c4nc(N)cc(C)c4C(F)(F)F)c(Cl)cc23)C(C)C1 , what is its reported viability, T/C?
70.1

Given the compound O=C(c1ccc(F)c(F)c1Nc1ccc(I)cc1F)N1CC(O)([C@@H]2CCCCN2)C1 + C=CC(=O)N1CCN(c2nc(OCC3CCCN3C)nc3c(F)c(-c4nc(N)cc(C)c4C(F)(F)F)c(Cl)cc23)C(C)C1 , what is its reported viability, T/C?
39.3

Given the compound C=CC(=O)Nc1cc(Nc2nccc(-c3cn(C)c4ccccc34)n2)c(OC)cc1N(C)CCN(C)C + C=CC(=O)N1CCN(c2nc(OCC3CCCN3C)nc3c(F)c(-c4nc(N)cc(C)c4C(F)(F)F)c(Cl)cc23)C(C)C1 , what is its reported viability, T/C?
73.9

Given the compound CC(C)n1nc(-c2ccc3oc(N)nc3c2)c2c(N)ncnc21 + C=CC(=O)N1CCN(c2nc(OCC3CCCN3C)nc3c(F)c(-c4nc(N)cc(C)c4C(F)(F)F)c(Cl)cc23)C(C)C1 , what is its reported viability, T/C?
28.8

Given the compound CC(C)NCC(C(=O)N1CCN(c2ncnc3c2C(C)CC3O)CC1)c1ccc(Cl)cc1 (stereo not given) + C=CC(=O)N1CCN(c2nc(OCC3CCCN3C)nc3c(F)c(-c4nc(N)cc(C)c4C(F)(F)F)c(Cl)cc23)C(C)C1 , what is its reported viability, T/C?
80.2

* * *

# Test system: 521955-158-R2-J5-PDC complex spheroids, viability
# Assay Explanation: Anticancer human tumor 521955-158-R2-J5-PDC cell line growth inhibition [RAS];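 note: spheroids also contain HUVEC endothelial cells and mesenchymal stem cells as stroma; compound exposure lasted seven days before the viability read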
# Particulars: second compound 0.003 µM; first compound 0.1 µM; active compounds read low
So I've got a bunch of compounds here, and I need their viability, T/C values.

Given the compound CCN1CCN(Cc2ccc(Nc3ncc(F)c(-c4cc(F)c5nc(C)n(C(C)C)c5c4)n3)nc2)CC1 + CCn1c(-c2cc(N3CCN(C)CC3)cnc2C(C)OC)c2c3cc(ccc31)-c1csc(n1)CC(NC(=O)C1CC1C)C(=O)N1CCCC(N1)C(=O)OCC(C)(C)C2 , what is its reported viability, T/C?
39.2%

Given the compound Nc1ccn(C2OC(CO)C(O)C2(F)F)c(=O)n1 (configuration not stated) + CCn1c(-c2cc(N3CCN(C)CC3)cnc2C(C)OC)c2c3cc(ccc31)-c1csc(n1)CC(NC(=O)C1CC1C)C(=O)N1CCCC(N1)C(=O)OCC(C)(C)C2 , what is its reported viability, T/C?
28%
